- test: BSK_3C_Vis: BioMAP Diversity Plus: 3C Assay for Morphology Visualization (AID 2283025);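 note: fitted both ways so gain or loss versus DMSO counts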
- assay conditions: primary human endothelial cells (HUVEC)
Activity calls are given as the source filed them. Rule for the calls: active = hit-call score of the fitted dose curve at least 0.9, where 1 is the maximum; inactive = score below 0.9.
Allowed answers: active, inactive

Query: Status in this test for C=CCOC(=O)c1ccccc1C(=O)OCC=C ?
Reply: inactive

Query: Status in this test for CC(=O)C(C)=CC1C(C)=CCCC1(C)C (stereo not given) ?
Reply: inactive

Query: Status in this test for COc1cc(-c2nc(NC(=O)c3cc4cc(C)cc(C)c4n3CC(=O)O)sc2CCC2CCCCC2)c(OC)cc1Cl ?
Reply: active

Query: Status in this test for C1CCC(SSC2CCCCC2)CC1 ?
Reply: inactive

Query: Status in this test for Cc1ccc(Cl)cc1 ?
Reply: inactive

Query: Status in this test for COc1ccc(S(=O)(=O)N2C(=O)[C@@](c3ccccc3OC)(N3C[C@H](O)C[C@H]3C(=O)N(C)C)c3cc(Cl)ccc32)c(OC)c1 ?
Reply: active

Query: Status in this test for FC(F)(F)C(F)(F)C(F)(F)C(F)(F)C(F)(F)C(F)(F)CCI ?
Reply: inactive

Query: Status in this test for Cc1nc(-c2ccc3c(c2)CCN(CCC2CCC(NC(=O)/C=C/c4ccc(F)cc4)CC2)CC3)no1 (stereo not given) ?
Reply: active

Query: Status in this test for CN[C@H]1CC[C@@H](c2ccc(Cl)c(Cl)c2)c2ccc(S(N)(=O)=O)cc21 ?
Reply: active

Query: Status in this test for CCCCc1ccc2c(n1)[C@@H](c1ccc(OC)cc1C[C@H](C)C(=O)O)[C@H](C(=O)O)[C@H]2c1ccc2c(c1)OCO2 ?
Reply: inactive

* * *

- System: guinea pig Dopamine Transporter (DAT), gene 100714898
- test: NVS_TR_gDAT: NovaScreen (NVS) Transporter Assay for guinea pig Dopamine Transporter (DAT) (AID 2283369);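 note: active compounds lower bound radioligand signal relative to DMSO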
Inconclusive results are not listed. Active and inactive are the calls of the source. How the source made its calls: active means hit-call score of the fitted dose curve at least 0.9, where 1 is the maximum; inconclusive means response in the unintended direction; inactive means score below 0.9.
Allowed answers: active, inactive

Query: Status in this test for COc1ccc(S(=O)(=O)N2C(=O)[C@@](c3ccccc3OC)(N3C[C@H](O)C[C@H]3C(=O)N(C)C)c3cc(Cl)ccc32)c(OC)c1 ?
Reply: active

Query: Status in this test for CCCCC(CC)COC(=O)CC(C(=O)OCC(CC)CCCC)S(=O)(=O)O (centres undefined) ?
Reply: active

Query: Status in this test for CC=Cc1ccc(O)c(OC)c1 ?
Reply: active

Query: Status in this test for CCc1c(C(=O)NN2CCCCC2)nn(-c2ccc(Cl)cc2Cl)c1-c1ccc(Br)cc1 ?
Reply: inactive

* * *

- test: ATG_CRE_CIS: Attagene CIS-FACTORIAL HepG2 Assay for human cAMP Responsive Element (CRE) binding protein 3 (AID 2282926)
- assay conditions: HepG2 CRE cis-reporter, Attagene multiplexed mRNA; actives raise or lower the signal
Active and inactive are the calls of the source. The calls were made as follows: active = hit-call score of the fitted dose curve at least 0.9, where 1 is the maximum; inactive = score below 0.9.
property measured: AC50

The following compounds have reported results that may help.
>>> df
                           structure_smiles  property_measured    result
0                        CCCCCCCCCCCC(=O)OC               AC50  inactive
1               NCC1(Cc2noc(=O)[nH]2)CCCCC1               AC50  inactive
2                             Cc1ccc(Cl)cc1               AC50  inactive
3  COc1cc(/C=C/C(=O)CC(=O)/C=C/c2ccc(O)c(OC)c2)ccc1O               AC50  inactive
4                            COc1ccc(C)cc1N               AC50  inactive
5                 CCCc1cc(=O)[nH]c(=S)[nH]1               AC50  inactive

# ---- query compound ----
Query: If you can, please state the reported AC50 value of CC(C)(C)c1cc(O)c(C(C)(C)C)cc1O .
Reply: 23 µM (active)

Reference for the values: PubChem BioAssay (EPA / NIEHS)
